test: Lethality and other treatment effects in mice seizure models; type: in vivo; conditions: CF-1, mouse, in vivo, intraperitoneal
readoutName: LD50 at 24 h

- CC(C)CCNC1=CC(=O)c2ccccc2C1=O [3d, 2-(isopentylamino)naphthalene-1,4-dione]: > 800 mg/kg
